experiment: physchem
condition.label: buffer, stability in PBS at 20° C. t1/2, PBS, 20° C.
property.name: half-life

COc1cccc2c1C(=O)c1c(O)c3c(c(O)c1C2=O)C[C@@](O)(C(=O)CO)C[C@@H]3OC1CC(NC(=O)OCc2ccc(CC(=O)NC3CC/C=C/CCC3N)cc2)[C@H](O)C(C)O1 (some centres unmarked) [compound 64, (E)-cyclooctene-doxorubicin conjugate] = 1 days
COc1cccc2c1C(=O)c1c(O)c3c(c(O)c1C2=O)C[C@@](O)(C(=O)CO)C[C@@H]3OC1CC(NC(=O)OCc2cc(C)c(CC(=O)NC3CC/C=C/CCC3N)c(C)c2)[C@H](O)C(C)O1 (some centres unmarked) [compound 68, (E)-cyclooctene-doxorubicin conjugate] = 26 days

###

Quick list: half-life per entry.
experiment: physchem
condition.label: buffer, stability in PBS t1/2, PBS, 37° C.
property.name: half-life

COc1cccc2c1C(=O)c1c(O)c3c(c(O)c1C2=O)C[C@@](O)(C(=O)CO)C[C@@H]3OC1CC(NC(=O)OCc2ccc(CC(=O)NC3CC/C=C/CCC3N)cc2)[C@H](O)C(C)O1 (some centres unmarked) [compound 64, (E)-cyclooctene-doxorubicin conjugate] = 3.6 h
COc1cccc2c1C(=O)c1c(O)c3c(c(O)c1C2=O)C[C@@](O)(C(=O)CO)C[C@@H]3OC1CC(NC(=O)OCc2cc(C)c(CC(=O)NC3CC/C=C/CCC3N)c(C)c2)[C@H](O)C(C)O1 (some centres unmarked) [compound 68, (E)-cyclooctene-doxorubicin conjugate] = 149 h

###

Quick list: half-life at 83 µM per entry.
experiment: Stability of trans-cyclooctene derivatives in PBS
condition.label: PBS buffer
property.name: half-life at 83 µM (h)

COc1ccccc1OC(=O)NC1CC/C=C/CCC1N (stereo not shown) [compound 41] = 21
Cc1ccccc1OC(=O)NC1CC/C=C/CCC1N (stereo not shown) [compound 39] = 192
N[C@H]1CC/C=C/CC[C@H]1NC(=O)Oc1ccccc1 (relative stereo) [compound 36] = 27
NC1/C=C/CCCCC1NC(=O)Oc1ccccc1 (stereo not shown) [compound 56] = 120

###

experiment: Hydrolytic stability tests of tetrazines
Type: physicochemical
condition.label: values marked *: 50:50 mixture of PBS and acetonitrile
Quick list: half-life at 83 µM per entry.
property.name: half-life at 83 µM

c1cc(-c2nnc(-c3ccsc3)nn2)cs1 = > 12.5 days
c1ccc(-c2nnc(-c3ccccc3)nn2)cc1 = > 12.5 days
c1c[nH]c(-c2nnc(-c3ccc[nH]3)nn2)c1 = > 12.5 days
CCCC(=O)Nc1ccc(-c2nnc(-c3ccc(C(F)(F)F)cn3)nn2)nc1 = 1.46 days
Nc1ccc(-c2nnc(-c3ccc(N)cc3)nn2)cc1 = > 12.5 days
FC(F)(F)c1ccc(-c2nnc(-c3ccc(C(F)(F)F)cn3)nn2)nc1 = 0.15 days
Nc1cccc(-c2nnc(-c3ccccc3)nn2)c1 = > 12.5 days
Nc1ccc(-c2nnc(-c3ccccc3)nn2)cc1 = > 12.5 days
Oc1ccc(-c2nnc(-c3ccc(O)cc3)nn2)cc1 = > 12.5 days
c1csc(-c2nnc(-c3cccs3)nn2)c1 = > 12.5 days
Nc1ccccc1-c1nnc(-c2ccccc2N)nn1 = > 12.5 days

###

experiment: Hydrolytic stability tests of tetrazines
Format: physicochemical
condition.label: PBS buffer; PBS, 20° C.
Quick list: log10(half-life at 83 µM) per entry.
property.name: log10(half-life at 83 µM) (log10 of the value in h)

c1ccc(-c2nncnn2)nc1 = 0.43
Fc1ccc(-c2nnc(-c3ccc(F)cn3)nn2)nc1 = 2.06
CC(=O)Nc1ccc(-c2nnc(-c3ccccn3)nn2)nc1 [compound 5] = 1.90
O=C1CCCC(=O)N1c1ccc(-c2nnc(-c3ccccn3)nn2)nc1 = 1.38
CCCNC(=O)c1ccc(-c2nnc(-c3ccccn3)nn2)nc1 = 0.60
Nc1ccc(-c2nnc(-c3ccccn3)nn2)nc1 = 2.53
CCCC(=O)Nc1ccc(-c2nnc(-c3ccc(F)cn3)nn2)nc1 = 2.07
CCCC(=O)Nc1ccc(-c2nnc(-c3ncccn3)nn2)nc1 = 0.51
c1cnc(-c2nnc(-c3cnccn3)nn2)cn1 = -0.17
NCc1ccc(-c2nncnn2)cc1 = 2.26
CCCNC(=O)c1ccc(-c2nnc(-c3ncccn3)nn2)nc1 = -0.38
NCc1nnc(CN)nn1 [compound 20, 3,6-bis(aminomethyl)-1,2,4,5-tetrazine] = 1.20
c1ccc(-c2nnc(-c3ccccn3)nn2)nc1 [compound 2, 3,6-bis(2-pyridyl)-1,2,4,5-tetrazine] = 1.64
c1cc(-c2nnc(-c3ccncc3)nn2)ccn1 = 0.38
CCCC(=O)Nc1ccc(-c2nncnn2)nc1 = 1.01
Cc1nnc(-c2ccccn2)nn1 [compound 7, 3-(2-pyridyl)-6-methyl-1,2,4,5-tetrazine] = 2.36
CCCC(=O)Nc1ccc(-c2nnc(C)nn2)nc1 = 2.48

###

experiment: Stability of trans-cyclooctene derivatives in PBS
condition.label: PBS buffer
property.name: half-life at 83 µM

OC1CC/C=C/CCC1 (stereo not drawn) [axial isomer, trans-cyclooct-4-ene-1-ol, reference compound] = > 3 days
NC1CC/C=C/CCC1NC(=O)Nc1ccccc1 (stereo not drawn) = > 20 days
O=C(Oc1ccccc1)N1C/C=C/CNCC1 = > 20 days
Cc1cccc(C)c1OC(=O)NC1CC/C=C/CCC1N (stereo not drawn) = > 20 days
CC(C)(C)c1ccccc1OC(=O)NC1CC/C=C/CCC1N (stereo not drawn) = > 20 days
COc1cc(COC(=O)NC2CC/C=C/CCC2N)cc(OC)c1OC (stereo not drawn) = > 10 days

These entries and their values trace back to patent US20160151505A1.
